Test system: CAOV3
Assay: Primary qHTS to identify gynecologic anti-cancer compounds using libraries of approved drugs and bioactive compounds (AID 1345084); further: on the % scale 0 is the no-effect control and ±100 the full control effect; nearly all actives have a fitted effect of over 55% in size
Conditions: Gynecologic cancer cell panel viability, ATPlite luminescence, 48 h; series mostly up to 57.5 µM
Excerpt: National Center for Advancing Translational Sciences [NCATS] Assay Overview: Chemotherapeutic drug responses vary from cancer to cancer and from patient to patient. […] ATPlite is a luminescence based assay reliant on the conversion of a luciferase substrate to light in the presence of ATP. As a cytotoxic compound will suppress growth and decrease the number of cells, the concentration of ATP will decrease, and less light signal will be detected in the well. […]
Inconclusive results are not listed. Calls of active or inactive are those of the source. The call rests on the fitted dose curve; in most records, active means well fitted cell-killing curve with a large enough effect; inconclusive means small, poorly fitted or top-dose-only effect, or effect the other way; inactive means flat fitted curve, though single readings scatter.
readout_name: activity change, negative = cytotoxicity

# example entries with known answers
| compound | activity change, negative = cytotoxicity |
| --- | --- |
| CN1C[C@@H]2C[C@H]1CN2c1cc2c(cc1F)c(=O)c(C(=O)O)cn2C1CC1 | inactive |
| CCN(CC)S(=O)(=O)c1ccc(C(=O)O)cc1 | inactive |
| O=C(c1ccccc1)C(O)c1ccccc1 (configuration not stated) | inactive |
| CC(=O)OCC(COC(C)=O)OC(C)=O | inactive |
| O=C(OOC(=O)c1ccccc1)c1ccccc1 | inactive |
| Cc1cc(O)cc(C)c1Cl | inactive |

(Q) Sample `Cc1ccsc1/C=C/C1=NCCCN1C` — what was its activity change, negative = cytotoxicity?
(A) inactive

(Q) Sample `C=CCNC(N)=S` — what was its activity change, negative = cytotoxicity?
(A) inactive

(Q) Sample `O=C(O)Cc1cn(-c2ccccc2)nc1-c1ccc(Cl)cc1` — what was its activity change, negative = cytotoxicity?
(A) inactive

(Q) Sample `CC1(C)S[C@@H]2[C@H](N=CN3CCCCCC3)C(=O)N2[C@H]1C(=O)O` — what was its activity change, negative = cytotoxicity?
(A) inactive

(Q) Sample `NS(=O)(=O)c1ccc(NC(=O)CCC(=O)O)cc1` — what was its activity change, negative = cytotoxicity?
(A) inactive

(Q) Sample `CC[C@]12CCCN3CCc4c(n(c5ccccc45)[C@@](O)(C(=O)OC)C1)[C@@H]32` — what was its activity change, negative = cytotoxicity?
(A) inactive

====

Target: Protein phosphatase 1D (Homo sapiens)
Assay: Rhodamine-PBP qHTS Assay for Modulators of WT P53-Induced Phosphatase 1 (WIP1) (AID 1347425); further: % of control where 0% means no effect
Conditions: recombinant WIP1, Rhodamine-PBP phosphate fluorescence, real-time; series mostly up to 57.5 µM
Records with an inconclusive call do not appear. Calls of active or inactive are those of the source. The call rests on the fitted dose curve; in most records, active means well fitted curve in the direction sought with a large enough effect; inconclusive means small, poorly fitted or top-dose-only effect, or another doubt; inactive means no such curve, though single readings can be large or run the other way.
readout_name: activity change, negative = inhibition

| compound | activity change, negative = inhibition |
| --- | --- |
| CC(C)=CCC/C(C)=C/CO | inactive |
| CCCCCCCC(=O)OCC(COC(=O)CCCCCCC)OC(=O)CCCCCCC | inactive |
| C[N+](C)(C)CC(O)CC(=O)[O-] (configuration not stated) | inactive |
| O=C(O)c1ccccc1C(=O)Nc1ccc(S(=O)(=O)Nc2nccs2)cc1 | inactive |
| CC(C)CCCC(C)CCCC(C)CCCCC(C)CCCC(C)CCCC(C)C (configuration not stated) | inactive |
| NC(=O)c1ccc([N+](=O)[O-])cc1Cl | inactive |

(Q) Sample `CCOc1ccccc1O[C@H](c1ccccc1)[C@H]1CNCCO1` — what was its activity change, negative = inhibition?
(A) inactive

(Q) Sample `COc1cc(O)cc(O)c1` — what was its activity change, negative = inhibition?
(A) inactive

====

Tested on: TAB113
Assay: qHTS profiling for inhibitors of Plasmodium falciparum proliferation (AID 504749); further: nearly all actives have a fitted effect of over 60% in size
Settings: P. falciparum in erythrocytes, SYBR Green DNA, 72 h; series mostly up to 28.7 µM
Results filed as inconclusive are left out. Activity calls are given as the source filed them. Calls come from the whole dose curve; as a rule, active = well fitted inhibition curve with a large enough effect; inconclusive = small, poorly fitted or top-dose-only effect; inactive = flat fitted curve, though single readings scatter.
Outcome (select one): true (active), false (inactive)

(Q) What did this assay record as the result for `O=C1c2ccccc2C(=O)C1c1ccc(Br)cc1` ?
(A) true

(Q) What did this assay record as the result for `CC(=O)Nc1ccc(C(=O)O)cc1` ?
(A) false

(Q) What did this assay record as the result for `CC[N+](C)(CC)CCOC(=O)C1c2ccccc2Oc2ccccc21` ?
(A) false

(Q) What did this assay record as the result for `COc1ccc(C(=O)N2CCN(CC(=O)N3CCOCC3)CC2)cc1` ?
(A) false

(Q) What did this assay record as the result for `COC(=O)c1cccnc1` ?
(A) false

(Q) What did this assay record as the result for `O=C1c2cccc(O)c2C(=O)c2c(O)cccc21` ?
(A) false

(Q) What did this assay record as the result for `Cc1c(NC(C)C)c(=O)n(-c2ccccc2)n1C` ?
(A) false

====

Tested on: HeLa
Test: Primary qHTS to identify gynecologic anti-cancer compounds using libraries of approved drugs and bioactive compounds (AID 1345084); further: on the % scale 0 is the no-effect control and ±100 the full control effect; nearly all actives have a fitted effect of over 55% in size
Conditions: Gynecologic cancer cell panel viability, ATPlite luminescence, 48 h; series mostly up to 57.5 µM
Results filed as inconclusive are left out. The source made the active and inactive calls. The call rests on the fitted dose curve; in most records, active means well fitted cell-killing curve with a large enough effect; inconclusive means small, poorly fitted or top-dose-only effect, or effect the other way; inactive means flat fitted curve, though single readings scatter.
readout_name: activity change, negative = cytotoxicity

# example entries with known answers
| compound | result |
| --- | --- |
| CCCOC(=O)c1ccc(N)cc1 | inactive |
| CCCCCCCCCCCCCCCCN | inactive |
| CN[C@@H]1[C@@H](O)[C@@H](O[C@@H]2[C@H](O)[C@H](O[C@H]3OC(CN)=CC[C@H]3N)[C@@H](N)C[C@H]2N)OCC1(C)O (some centres undefined) | inactive |
| O=C(NCCCN1CCOCC1)c1ccc(Cl)cc1 | inactive |
| CCc1nnc(NS(=O)(=O)c2ccc(N)cc2)s1 | inactive |
| O=C(NCN1CCOCC1)c1cnccn1 | inactive |

(Q) Sample `NC(=O)c1ccc([N+](=O)[O-])cc1Cl` — what was its activity change, negative = cytotoxicity?
(A) inactive

(Q) Sample `CNc1c2c(nn1C)CCCC2` — what was its activity change, negative = cytotoxicity?
(A) inactive

(Q) Sample C=CCOc1ccccc1OCC(O)CNC(C)C (centres undefined) — what was its activity change, negative = cytotoxicity?
(A) inactive

(Q) Sample FC(F)(F)C(Cl)Br (centres undefined) — what was its activity change, negative = cytotoxicity?
(A) inactive

(Q) Sample `N[C@@H](Cc1ccc(O)cc1)C(=O)O` — what was its activity change, negative = cytotoxicity?
(A) 11.2% [at 11.6 µM] (inactive)

(Q) Sample CCN1CC(CCN2CCOCC2)C(c2ccccc2)(c2ccccc2)C1=O (centres undefined) — what was its activity change, negative = cytotoxicity?
(A) inactive

(Q) Sample `C=CCNC(N)=S` — what was its activity change, negative = cytotoxicity?
(A) inactive

(Q) Sample `COC(=O)c1cccnc1` — what was its activity change, negative = cytotoxicity?
(A) inactive

====

Test system: P94_40
Assay: qHTS profiling for inhibitors of Plasmodium falciparum proliferation (AID 504749); further: nearly all actives have a fitted effect of over 60% in size
Details: P. falciparum in erythrocytes, SYBR Green DNA, 72 h; series mostly up to 28.7 µM
Results filed as inconclusive are left out. Activity calls are given as the source filed them. Calls come from the whole dose curve; as a rule, active = well fitted inhibition curve with a large enough effect; inconclusive = small, poorly fitted or top-dose-only effect; inactive = flat fitted curve, though single readings scatter.
Outcome (select one): TRUE (active), FALSE (inactive)

(Q) What did this assay record as the result for `CCS(=O)(=O)CCn1c([N+](=O)[O-])cnc1C` ?
(A) FALSE

(Q) What did this assay record as the result for `Cc1ccc(S(=O)(=O)NC(=O)NC2CCCCCCC2)cc1` ?
(A) FALSE

(Q) What did this assay record as the result for O=C(O)CCCCC1CCSS1 (stereo unspecified) ?
(A) FALSE

(Q) What did this assay record as the result for `NC(N)=NCCN1CCCCCCC1` ?
(A) FALSE

(Q) What did this assay record as the result for `Cc1[nH]c(C)c(Cl)c(=O)c1Cl` ?
(A) FALSE

(Q) What did this assay record as the result for `COc1ccc(C(=O)NCc2ccc(OCCN(C)C)cc2)cc1OC` ?
(A) FALSE

(Q) What did this assay record as the result for `Cc1c(C)c2c(c(C)c1OC(=O)c1cccnc1)CC[C@@](C)(CCC[C@H](C)CCC[C@H](C)CCCC(C)C)O2` ?
(A) FALSE

(Q) What did this assay record as the result for `CCCCCCCCCCOc1cc2c(=O)c(C(=O)OCC)c[nH]c2cc1OCC` ?
(A) TRUE

(Q) What did this assay record as the result for `O=C(O)c1ccccc1C(=O)Nc1ccc(S(=O)(=O)Nc2nccs2)cc1` ?
(A) FALSE

(Q) What did this assay record as the result for `OC[C@@H](O)[C@@H](O)[C@H](O)[C@H](O)CO` ?
(A) FALSE

(Q) What did this assay record as the result for `NC(=O)c1ccc([N+](=O)[O-])cc1Cl` ?
(A) FALSE

(Q) What did this assay record as the result for `CC(C)=CCC/C(C)=C/CO` ?
(A) FALSE

(Q) What did this assay record as the result for `Cc1c(NC(=O)c2cccnc2)c(=O)n(-c2ccccc2)n1C` ?
(A) FALSE

(Q) What did this assay record as the result for `COc1ccccc1OC(=O)Oc1ccccc1OC` ?
(A) FALSE

(Q) What did this assay record as the result for `Cc1c(C(=O)NCCO)[n+](=O)c2ccccc2n1[O-]` ?
(A) FALSE

(Q) What did this assay record as the result for `CC(=O)OC[C@H]1O[C@@](COC(C)=O)(O[C@H]2O[C@H](COC(C)=O)[C@@H](OC(C)=O)[C@H](OC(C)=O)[C@H]2OC(C)=O)[C@@H](OC(C)=O)[C@@H]1OC(C)=O` ?
(A) TRUE

(Q) What did this assay record as the result for `Nc1ccncc1N` ?
(A) FALSE

(Q) What did this assay record as the result for `COc1ccc(Cc2cnc(N)nc2N)cc1OC` ?
(A) FALSE

(Q) What did this assay record as the result for `COc1ccc2cc(CCC(C)=O)ccc2c1` ?
(A) FALSE

(Q) What did this assay record as the result for `COc1cc(C(=O)NCCCCCC(=O)O)cc(OC)c1OC` ?
(A) FALSE

(Q) What did this assay record as the result for `CN/C(=C\[N+](=O)[O-])NCCSCc1csc(CN(C)C)n1` ?
(A) FALSE

(Q) What did this assay record as the result for OCC(O)CS (stereo unspecified) ?
(A) FALSE

(Q) What did this assay record as the result for `C[C@@H]1CCC[C@H](C)N1` ?
(A) FALSE

(Q) What did this assay record as the result for `Cc1cccc(Nc2ccccc2C(=O)O)c1C` ?
(A) FALSE

(Q) What did this assay record as the result for `CCCCCC(N)=O` ?
(A) FALSE

(Q) What did this assay record as the result for `O=C(Cn1ccnc1[N+](=O)[O-])NCCO` ?
(A) FALSE
